Test Description: Oral bioavailability in C57BL/6 mouse at 2 mg/kg
Assay type: ADME, organism-based
Condition: in vivo
Quantity: bioavailability (%)
Numeric answer only, unit % assumed.

Look over these answered cases.
### Prompt // fetch bioavailability given entry COc1ccc2ncc(F)c(C[C@@H](O)C34CCC(NCc5ccc6c(n5)NC(=O)CO6)(CC3)CO4)c2n1.Cl
### Response 25.3

### Prompt // fetch bioavailability given entry COc1ccc2ncc(F)c(C[C@H](O)C34CCC(NCc5ccc6c(n5)NC(=O)CO6)(CC3)CO4)c2n1.Cl
### Response 30.1

# next molecule below
### Prompt // fetch bioavailability given entry COc1ccc2ncc(F)c(CCC34CCC(NCc5ccc6c(n5)NC(=O)CO6)(CC3)CO4)c2n1.Cl
### Response 71.6

###

Listing: solubility of selected compounds
Test Description: Solubility of the compound in PBS at pH 2
Assay type: physicochemical
For clarity, give the value followed by its unit.

### Prompt // fetch solubility given entry COc1ccc2ncc(F)c(CCC34CCC(NCc5ccc6c(n5)NC(=O)CO6)(CC3)CO4)c2n1.Cl
### Response 20.3 µM

# next compound below
### Prompt // fetch solubility given entry COc1ccc2ncc(F)c(C[C@H](O)C34CCC(NCc5ccc6c(n5)NC(=O)CO6)(CC3)CO4)c2n1.Cl
### Response 200 µM

###

Listing: fraction unbound of selected compounds
Test Description: Unbound fraction in mouse plasma
Format: ADME, cell-free

Look over these answered cases.
### Prompt // fetch fraction unbound given entry COc1ccc2ncc(F)c(CCC34CCC(NCc5ccc6c(n5)NC(=O)CO6)(CC3)CO4)c2n1.Cl
### Response < 0.02

### Prompt // fetch fraction unbound given entry COc1ccc2ncc(F)c(C[C@H](O)C34CCC(NCc5ccc6c(n5)NC(=O)CO6)(CC3)CO4)c2n1.Cl
### Response > 0.25

# next compound below
### Prompt // fetch fraction unbound given entry COc1ccc2ncc(F)c(C[C@@H](O)C34CCC(NCc5ccc6c(n5)NC(=O)CO6)(CC3)CO4)c2n1.Cl
### Response > 0.25

###

Listing: Vd of selected molecules
Test Description: Volume of distribution at steady state in C57BL/6 mouse at 1 mg/kg, iv and 2 mg/kg, po
Type: ADME, organism-based
Condition: in vivo, read-out: Vdss
Numeric answer only, unit L/kg assumed.

Look over these answered cases.
### Prompt // fetch Vd given entry COc1ccc2ncc(F)c(CCC34CCC(NCc5ccc6c(n5)NC(=O)CO6)(CC3)CO4)c2n1.Cl
### Response 2.22

### Prompt // fetch Vd given entry COc1ccc2ncc(F)c(C[C@@H](O)C34CCC(NCc5ccc6c(n5)NC(=O)CO6)(CC3)CO4)c2n1.Cl
### Response 4.94

# next molecule below
### Prompt // fetch Vd given entry COc1ccc2ncc(F)c(C[C@H](O)C34CCC(NCc5ccc6c(n5)NC(=O)CO6)(CC3)CO4)c2n1.Cl
### Response 1.61

###

Measured Target: DNA gyrase (Staphylococcus aureus, UniProt P0A0K8+P20831)
Sequence (P0A0K8 whole entry): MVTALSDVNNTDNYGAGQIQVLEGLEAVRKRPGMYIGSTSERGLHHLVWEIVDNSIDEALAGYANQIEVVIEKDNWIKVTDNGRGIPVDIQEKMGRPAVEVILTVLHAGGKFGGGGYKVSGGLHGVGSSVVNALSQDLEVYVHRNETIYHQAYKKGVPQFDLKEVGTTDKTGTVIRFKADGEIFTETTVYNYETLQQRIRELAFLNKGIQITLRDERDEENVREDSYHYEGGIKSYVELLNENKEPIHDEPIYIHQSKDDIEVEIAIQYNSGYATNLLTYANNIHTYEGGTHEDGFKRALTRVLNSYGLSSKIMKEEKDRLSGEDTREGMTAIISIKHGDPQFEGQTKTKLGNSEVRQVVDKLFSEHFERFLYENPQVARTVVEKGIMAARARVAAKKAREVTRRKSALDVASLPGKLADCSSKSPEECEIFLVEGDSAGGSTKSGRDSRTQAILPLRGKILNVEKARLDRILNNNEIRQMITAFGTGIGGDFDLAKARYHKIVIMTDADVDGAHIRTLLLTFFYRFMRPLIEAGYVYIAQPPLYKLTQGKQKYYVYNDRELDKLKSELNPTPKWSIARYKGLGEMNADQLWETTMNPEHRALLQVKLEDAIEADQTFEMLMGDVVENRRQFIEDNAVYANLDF
Sequence (P20831 whole entry): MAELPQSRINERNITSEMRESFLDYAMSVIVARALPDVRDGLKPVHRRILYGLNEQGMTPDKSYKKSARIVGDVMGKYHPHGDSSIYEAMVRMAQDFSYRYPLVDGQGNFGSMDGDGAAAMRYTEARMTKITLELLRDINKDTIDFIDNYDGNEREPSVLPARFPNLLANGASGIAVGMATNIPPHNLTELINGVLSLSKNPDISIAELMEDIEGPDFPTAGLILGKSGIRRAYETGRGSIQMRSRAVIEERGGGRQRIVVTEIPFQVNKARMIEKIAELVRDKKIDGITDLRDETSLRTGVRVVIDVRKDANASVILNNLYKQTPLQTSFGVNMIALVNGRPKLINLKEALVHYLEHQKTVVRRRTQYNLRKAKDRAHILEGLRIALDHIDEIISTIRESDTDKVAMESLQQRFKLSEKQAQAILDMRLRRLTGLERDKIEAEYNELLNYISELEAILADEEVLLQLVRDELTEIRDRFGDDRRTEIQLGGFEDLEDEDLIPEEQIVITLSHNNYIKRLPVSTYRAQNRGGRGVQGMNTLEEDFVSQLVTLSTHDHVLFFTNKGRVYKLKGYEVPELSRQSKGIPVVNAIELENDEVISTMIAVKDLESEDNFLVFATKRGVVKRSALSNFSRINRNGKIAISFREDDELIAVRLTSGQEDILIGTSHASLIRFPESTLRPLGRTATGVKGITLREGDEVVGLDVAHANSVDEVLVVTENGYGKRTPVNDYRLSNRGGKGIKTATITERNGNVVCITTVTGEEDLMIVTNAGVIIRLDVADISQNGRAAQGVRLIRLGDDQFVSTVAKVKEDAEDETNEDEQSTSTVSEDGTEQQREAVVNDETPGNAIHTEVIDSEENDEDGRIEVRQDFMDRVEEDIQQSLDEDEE
Test Description: Inhibition of Staphylococcus aureus DNA gyrase
Listing: IC50 of selected compounds
Numeric answer only, unit nM assumed.

### Prompt // fetch IC50 given entry COc1ccc2ncc(F)c(C[C@H](O)C34CCC(NCc5ccc6c(n5)NC(=O)CO6)(CC3)CO4)c2n1.Cl
### Response 1020

More entries:
### Prompt // fetch IC50 given entry COc1ccc2ncc(F)c(CCC34CCC(NCc5ccc6c(n5)NC(=O)CO6)(CC3)CO4)c2n1.Cl
### Response 220
